Source of measurements: ChEMBL document CHEMBL3792277

Examples of compounds with documented solubility at 1 h follow.
assay_name: Solubility of compound in PBS at pH 7.4 after 1 hr by chemiluminiscent nitrogen detection method
Format: physicochemical
Give your result in µg/mL as a bare value.

The cases that follow already have their solubility at 1 h on record.
- O=C(Nc1ccc(-c2cc[nH]n2)cc1)c1ccccc1: 12
- O=C(Nc1cnc(-c2cc[nH]n2)nc1)c1ccccc1: 82
- NC(=O)c1ccc(N2CCc3ccccc3C2=O)cc1: 132
- NC(=O)c1ccc(NC(=O)c2ccccc2)cc1: 13

Below: the item to evaluate.
Please give the documented solubility at 1 h of O=C1c2ccccc2CCN1c1ccc(-c2cc[nH]n2)cc1 94
